recorded-conditions: 303.15 K; 101 kPa; Liquid; Capillary tube (Ostwald / Ubbelohde) method
Kindly state viscosity for each of the entries shown.
# value in mPa·s; strip the unit string

Task item: Which measured viscosity value corresponds to Cc1cccc(C)c1 ?
Reply: 0.554

Task item: Which measured viscosity value corresponds to Cc1ccccc1C ?
Reply: 0.71

Task item: Which measured viscosity value corresponds to CO ?
Reply: 0.513

Task item: Which measured viscosity value corresponds to Cc1ccc(C)cc1 ?
Reply: 0.574

###

recorded-conditions: 318.15 K; 101 kPa; Liquid; Capillary tube (Ostwald / Ubbelohde) method
Numbers after ± are expanded uncertainties.
Kindly state viscosity for each of the entries shown.

Task item: Which measured viscosity value corresponds to CO ?
Reply: 0.422 ± 0.017 mPa·s

Task item: Which measured viscosity value corresponds to Cc1cccc(C)c1 ?
Reply: 0.472 ± 0.017 mPa·s

Task item: Which measured viscosity value corresponds to Cc1ccccc1C ?
Reply: 0.591 ± 0.017 mPa·s

Task item: Which measured viscosity value corresponds to Cc1ccc(C)cc1 ?
Reply: 0.486 ± 0.017 mPa·s

###

recorded-conditions: 308.15 K; 101 kPa; Liquid; Capillary tube (Ostwald / Ubbelohde) method
assay-metric: viscosity (mPa·s)
# value in mPa·s; strip the unit string

Task item: Which measured viscosity value corresponds to Cc1ccccc1C ?
Reply: 0.666

Task item: Which measured viscosity value corresponds to Cc1cccc(C)c1 ?
Reply: 0.524

Task item: Which measured viscosity value corresponds to Cc1ccc(C)cc1 ?
Reply: 0.542

Task item: Which measured viscosity value corresponds to CO ?
Reply: 0.48

###

recorded-conditions: 323.15 K; 101 kPa; Liquid; Capillary tube (Ostwald / Ubbelohde) method
assay-metric: viscosity (mPa·s)
# value in mPa·s; strip the unit string

Task item: Which measured viscosity value corresponds to Cc1ccc(C)cc1 ?
Reply: 0.461

Task item: Which measured viscosity value corresponds to Cc1ccccc1C ?
Reply: 0.56

Task item: Which measured viscosity value corresponds to CO ?
Reply: 0.397

Task item: Which measured viscosity value corresponds to Cc1cccc(C)c1 ?
Reply: 0.452

###

recorded-conditions: 313.15 K; 101 kPa; Liquid; Capillary tube (Ostwald / Ubbelohde) method
Numbers after ± are expanded uncertainties.
assay-metric: viscosity
Answer as a quantity: numeral, then unit.

Task item: Which measured viscosity value corresponds to Cc1cccc(C)c1 [1,3-dimethylbenzene] ?
Reply: 0.498 ± 0.017 mPa·s

Task item: Which measured viscosity value corresponds to Cc1ccc(C)cc1 [1,4-dimethylbenzene] ?
Reply: 0.514 ± 0.017 mPa·s

Task item: Which measured viscosity value corresponds to CO [methanol] ?
Reply: 0.45 ± 0.017 mPa·s

Task item: Which measured viscosity value corresponds to Cc1ccccc1C [1,2-dimethylbenzene] ?
Reply: 0.628 ± 0.017 mPa·s
